Values compiled from paper PMC4657899.

# Tested on: HCT116 (p53-/-)
# assayName: MTS anti-proliferative assay, HCT116 (p53-/-)
# Assay type: cell-based, human
# details: MTS, 72 h incubation, mean ± SD
assayReadout: IC50 (µM)

Oc1ccccc1C=Cc1ccc2ccccc2n1 : 14.1
CC(=O)Oc1ccccc1C=Cc1ccc2cccc(OC(C)=O)c2n1 : 14.7
CC(=O)Oc1ccccc1C=Cc1ccc2cccc(O)c2n1 : 13.5
CC(=O)Oc1cccc(C=Cc2ccc3cccc(O)c3n2)c1 : 10.7

---

# Test system: GM 07492
# assayName: MTS cytotoxicity assay, normal fibroblasts GM 07492
# Type: cell-based
# details: Fibroblast, 72 h incubation, normal human fibroblasts, mean ± SD
assayReadout: IC50

QUERY: What does the data say about its IC50? Entry: CCOc1ccc(C=Cc2ccc3c(Cl)cc(Cl)c(O)c3n2)cc1
RESULT: > 25 µM

QUERY: How about this compound: Oc1cccc2ccc(C=Cc3ccccc3Cl)nc12 [17b]
RESULT: 20.2 µM

QUERY: How about this compound: COc1cccc(C=Cc2ccc3cccc(O)c3n2)c1 [13b]
RESULT: > 25 µM

QUERY: How about this compound: CC(=O)Oc1cccc2ccc(C=Cc3ccccc3F)nc12 [12b]
RESULT: > 25 µM
